# System: OCI-AML2;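 note: after 48 h exposure read by CellTiter-Glo luminescence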
# test-protocol: cell viability relative to vehicle control; higher = less cytotoxic
# condition-details: 10 µM; SRSF2 genotype: P95H/wt
Counter-ions that a name gives are not always drawn.
For each entry below, report its cell viability value.
Enter the number, and then the unit.

- compound: "CC1(C)CC[C@]2(C(=O)O)CC[C@]3(C)C(=CC[C@@H]4[C@@]5(C)CC[C@H](O)C(C)(C)[C@@H]5CC[C@]43C)[C@@H]2C1 [Oleanolic Acid (Caryophyllin)]"
  cell viability: "66.8%"
- compound: "C=CC[N+]1([C@H]2C[C@H]3[C@@H]4CC[C@H]5C[C@H](O)[C@@H](N6CCOCC6)C[C@]5(C)[C@H]4CC[C@]3(C)[C@H]2OC(C)=O)CCCC1 [Rocuronium bromide]"
  cell viability: "88.1%"
- compound: "CN1CCN(C(=O)C=Cc2ccc([N+](=O)[O-])o2)CC1"
  cell viability: "24.7%"
- compound: "O=C1C=C2C=C[C@@H](O)[C@H](O)[C@H]2O1 [Griffonilide]"
  cell viability: "103%"
- compound: "COc1cc(CCC(C)=O)ccc1O [Vanillylacetone]"
  cell viability: "97.8%"

Record cell viability for all entries; do not skip any.
1. CCCS(=O)(=O)Nc1ccc(F)c(C(=O)c2c[nH]c3ncc(Cl)cc23)c1F
2. C[C@H](CCC(=O)O)[C@H]1CC[C@H]2[C@@H]3CC[C@@H]4C[C@H](O)CC[C@]4(C)[C@H]3C[C@H](O)[C@]12C [Deoxycholic acid]
3. COc1cc([C@@H]2c3cc4c(cc3[C@@H](O[C@@H]3O[C@@H]5CO[C@@H](c6cccs6)O[C@H]5[C@H](O)[C@H]3O)[C@H]3COC(=O)[C@H]23)OCO4)cc(OC)c1O [Teniposide (Vumon)]
4. COc1cc(Nc2ncc(F)c(Nc3ccc4c(n3)NC(=O)C(C)(C)O4)n2)cc(OC)c1OC [R406(free base)]
5. CC1(C)CCCC2(C)OC(=O)C=C12 (stereo not given) [Dihydroactinidiolide]
6. CCNC(=O)Nc1ccc(-c2nc3c(c(N4CCOC[C@@H]4C)n2)CCN(C2COC2)C3)cc1

A.
1: 99.2%; 2: 94.5%; 3: 0.66%; 4: 42.1%; 5: 91.1%; 6: 36.3%

Record cell viability for all entries; do not skip any.
1. CC(C)(C)[N+]([O-])=Cc1ccc(S(=O)(=O)O)cc1S(=O)(=O)O [NXY-059 (Disufenton sodium)]
2. CCCCCCCC/C=C\CCCCCCCC(=O)OCC [Ethyl Oleate]

A.
1: 102%; 2: 88.7%

Record cell viability for all entries; do not skip any.
1. Clc1ccc2nsnc2c1NC1=NCCN1 [Tizanidine HCl]
2. C#C[C@]1(OC(C)=O)CC[C@H]2[C@@H]3CCC4=C[C@@H](OC(C)=O)CC[C@@H]4[C@H]3CC[C@@]21C [Ethynodiol diacetate]

A.
101%
30.3%
